Listed molecules paired with reported IC50
# TESTED ON: Mucosa-associated lymphoid tissue lymphoma translocation protein 1 (Homo sapiens, UniProt Q9UDY8)
# Sequence (Q9UDY8 whole entry): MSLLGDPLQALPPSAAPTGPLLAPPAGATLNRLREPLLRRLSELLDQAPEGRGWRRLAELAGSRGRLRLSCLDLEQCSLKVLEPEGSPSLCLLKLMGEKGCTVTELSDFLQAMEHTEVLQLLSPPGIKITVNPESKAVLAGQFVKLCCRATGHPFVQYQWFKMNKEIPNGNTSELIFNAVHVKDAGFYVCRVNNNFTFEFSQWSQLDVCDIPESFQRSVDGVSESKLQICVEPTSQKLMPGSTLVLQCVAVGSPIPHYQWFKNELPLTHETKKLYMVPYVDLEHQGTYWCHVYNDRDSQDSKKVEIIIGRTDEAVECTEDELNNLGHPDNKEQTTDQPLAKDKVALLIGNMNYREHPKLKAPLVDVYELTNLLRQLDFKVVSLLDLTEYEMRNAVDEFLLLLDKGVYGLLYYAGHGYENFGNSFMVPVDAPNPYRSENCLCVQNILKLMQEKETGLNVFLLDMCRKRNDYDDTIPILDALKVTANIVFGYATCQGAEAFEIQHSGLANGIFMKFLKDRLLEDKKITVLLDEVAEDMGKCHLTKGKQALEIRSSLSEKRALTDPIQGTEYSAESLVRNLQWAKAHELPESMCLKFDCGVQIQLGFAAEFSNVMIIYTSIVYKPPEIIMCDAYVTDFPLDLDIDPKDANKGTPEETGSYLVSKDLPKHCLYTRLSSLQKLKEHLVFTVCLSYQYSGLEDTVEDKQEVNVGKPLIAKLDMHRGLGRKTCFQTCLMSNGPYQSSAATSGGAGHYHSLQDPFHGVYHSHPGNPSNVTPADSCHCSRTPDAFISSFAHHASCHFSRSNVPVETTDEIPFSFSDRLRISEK
# RUN DESCRIPTION: MALT1 Protease Assay 1

Example entries and their recorded answers appear below.
>>> recorded_measurement("C[C@@]1(C(F)(F)F)CN(C(=O)Nc2cnc(-n3ccnn3)c(C(F)(F)F)c2)c2cnc3cc(Cl)nn3c21")
"< 10 nM"
>>> recorded_measurement("C[C@@]1(C(F)(F)F)CN(C(=O)Nc2cnc(-n3nccn3)c(Cl)c2)c2cnc3cc(Cl)nn3c21")
"< 10 nM"
>>> recorded_measurement("C[C@@]1(C(F)(F)F)CN(C(=O)N[C@@H]2CCCC(F)(F)C2)c2cnc3cc(Cl)nn3c21")
"> 1000 nM"

Prompt: Any idea what its IC50 is? The molecule is `C[C@@]1(C(F)(F)F)CN(C(=O)Nc2cnc(-n3nccn3)c(C#N)c2)c2cnc3cc(Cl)nn3c21`
Completion: < 10 nM

====

# TESTED ON: Mucosa-associated lymphoid tissue lymphoma translocation protein 1 (Homo sapiens)
# RUN DESCRIPTION: MALT1 Protease Assay 1
# IC50 annotations

>>> recorded_measurement("Cn1ccc(-c2ncc(NC(=O)N3C[C@@](C)(C(F)(F)F)c4c3cnc3cc(Cl)nn43)cc2Cl)n1")
"< 0.01 µM"
>>> recorded_measurement("C[C@@H]1CCN(C(=O)Nc2cnc(-n3nccn3)c(Cl)c2)c2cnc3cc(Cl)nn3c21")
"< 0.01 µM"

Prompt: Enter reported IC50 observed with Mucosa-associated lymphoid tissue lymphoma translocation protein 1 (Homo sapiens) for `Cc1cc(NC(=O)N2C[C@@](C)(C(F)(F)F)c3c2cnc2cc(Cl)nn32)cnc1-n1nccn1`
Completion: < 0.01 µM

Prompt: Test system Mucosa-associated lymphoid tissue lymphoma translocation protein 1 (Homo sapiens); read-out IC50; what value for `CO[C@H]1CN(C(=O)Nc2cnc(-n3nccn3)c(Cl)c2)c2cnc3cc(Cl)nn3c2C1(C)C` ?
Completion: 0.01 to 0.1 µM

Prompt: What measured IC50 is associated with `C[C@@]1(C(F)(F)F)CN(C(=O)Nc2cnc([C@H]3CCCCO3)c(Cl)c2)c2cnc3cc(Cl)nn3c21` on Mucosa-associated lymphoid tissue lymphoma translocation protein 1 (Homo sapiens)?
Completion: 0.01 to 0.1 µM

Prompt: Quick check: IC50 on Mucosa-associated lymphoid tissue lymphoma translocation protein 1 (Homo sapiens), item `COCc1ncc(NC(=O)N2C[C@@](C)(C(F)(F)F)c3c2cnc2cc(Cl)nn32)cc1Cl` ?
Completion: 0.01 to 0.1 µM

====

Reported IC50 is given for each of the following compounds.
# TESTED ON: UniProt Q9UDY8
# RUN DESCRIPTION: MALT1 Protease Assay 2

Examples with their reported IC50 follow.
>>> recorded_measurement("C[C@]1(C(F)(F)F)CN(C(=O)Nc2cnnc(C(F)F)c2)c2cnc3cc(F)nn3c21")
"10 to 100 nM"
>>> recorded_measurement("C[C@@]1(C(F)(F)F)CN(C(=O)Nc2cc(N=S(C)(C)=O)nc(C(F)(F)F)c2)c2cnc3cc(Cl)nn3c21")
"< 10 nM"
>>> recorded_measurement("C[C@@]1(C(F)(F)F)CN(C(=O)Nc2cnc(C3(O)CC3)c(Cl)c2)c2cnc3cc(Cl)nn3c21")
"100 to 1000 nM"

Prompt: Form field: reported IC50 of `C[C@H](O)c1cnn(-c2ncc(NC(=O)N3C[C@@](C)(C(F)(F)F)c4c3cnc3cc(Cl)nn43)cc2Cl)n1`
Completion: < 10 nM

Prompt: Param item = `C[C@@]1(C(F)(F)F)CN(C(=O)Nc2cnnc(C(F)F)c2)c2cnc3cc(OC(F)F)nn3c21` ; retrieve measured IC50.
Completion: > 1000 nM

====

Reported pIC50 values follow for various molecules
# TESTED ON: Mucosa-associated lymphoid tissue lymphoma translocation protein 1 (Homo sapiens)
# RUN DESCRIPTION: MALT1 Protease Assay 2
pIC50: −log10 of the molar value.

Take a look at these entries with their results.
>>> recorded_measurement("CN(C)Cc1cnn(-c2ncc(NC(=O)N3C[C@@](C)(C(F)(F)F)c4c3cnc3cc(Cl)nn43)cc2Cl)n1")
"7.00 to 8.00"
>>> recorded_measurement("COC[C@]1(C(F)(F)F)CN(C(=O)Nc2cnc(-n3nccn3)c(Cl)c2)c2cnc3cc(Cl)nn3c21")
"7.00 to 8.00"
>>> recorded_measurement("C[C@@]1(C(F)(F)F)CN(C(=O)Nc2cnc(-n3nccn3)c(Cl)c2)c2cnc3c(F)cnn3c21")
"> 8.00"
>>> recorded_measurement("C[C@@]1(C(F)F)CN(C(=O)Nc2cnc(-n3nccn3)c(Cl)c2)c2cnc3cc(Cl)nn3c21")
"> 8.00"

Prompt: What does the data say about its pIC50? Entry: C[C@@]1(C(F)(F)F)CN(C(=O)NC2CCC3(CCCO3)CC2)c2cnc3cc(Cl)nn3c21 (stereo partly specified)
Completion: < 6.00

Prompt: For the molecule `C[C@@]1(C(F)(F)F)CN(C(=O)Nc2cnc(-n3cc(CO)cn3)c(Cl)c2)c2cnc3cc(Cl)nn3c21` , what pIC50 is on record?
Completion: > 8.00

====

# TESTED ON: Mucosa-associated lymphoid tissue lymphoma translocation protein 1 (Homo sapiens)
# RUN DESCRIPTION: MALT1 Protease Assay 2
Recorded IC50 values for a group of compounds are listed next.

>>> recorded_measurement("C[C@]1(C(F)F)CN(C(=O)Nc2cnc(OC(F)F)c(Cl)c2)c2cnc3cc(Cl)nn3c21")
"10 to 100 nM"
>>> recorded_measurement("Cc1nn2c3c(cnc2c1N)N(C(=O)Nc1cnc(-n2nccn2)c(Cl)c1)C[C@@]3(C)C(F)(F)F")
"> 1000 nM"
>>> recorded_measurement("CNc1cc(NC(=O)N2C[C@@](C)(C(F)(F)F)c3c2cnc2cc(Cl)nn32)cnc1-n1ccnn1")
"> 1000 nM"
>>> recorded_measurement("C[C@@]1(C(F)(F)F)CN(C(=O)N[C@H]2CCCC(F)(F)C2)c2cnc3cc(Cl)nn3c21")
"100 to 1000 nM"

Prompt: // map `CN1CC(Nc2cc(NC(=O)N3C[C@@](C)(C(F)(F)F)c4c3cnc3cc(Cl)nn43)cc(C(F)(F)F)n2)C1` to recorded IC50 (system: Mucosa-associated lymphoid tissue lymphoma translocation protein 1 (Homo sapiens))
Completion: > 1000 nM

Prompt: Missing value: IC50, Mucosa-associated lymphoid tissue lymphoma translocation protein 1 (Homo sapiens), entry `C[C@@]1(C(F)(F)F)CN(C(=O)Nc2cnc(C(=O)NC3CC3)c(C(F)F)c2)c2cnc3cc(Cl)nn3c21` . Fill in?
Completion: < 10 nM

Prompt: Query for Mucosa-associated lymphoid tissue lymphoma translocation protein 1 (Homo sapiens): what IC50 does the record show for `C[C@@]1(C(F)(F)F)CN(C(=O)Nc2cnc(-n3ncc([C@H](O)CO)n3)c(Cl)c2)c2cnc3cc(Cl)nn3c21` ?
Completion: < 10 nM

Prompt: Look up IC50 with Mucosa-associated lymphoid tissue lymphoma translocation protein 1 (Homo sapiens) for this compound: `CO[C@@]1(C(F)(F)F)CN(C(=O)Nc2cnc(-n3nccn3)c(Cl)c2)c2cnc3cc(Cl)nn3c21`
Completion: < 10 nM

Prompt: Quick check: IC50 on Mucosa-associated lymphoid tissue lymphoma translocation protein 1 (Homo sapiens), item `CNc1nc(NC(=O)N2C[C@@](C)(C(F)(F)F)c3c2cnc2cc(Cl)nn32)ccc1-n1nccn1` ?
Completion: > 1000 nM

Prompt: What measured IC50 is associated with `Cc1cn2ncc3c(c2n1)C(C)(C)CN3C(=O)Nc1cnc(C(=O)N(C)C)c(Cl)c1` on Mucosa-associated lymphoid tissue lymphoma translocation protein 1 (Homo sapiens)?
Completion: > 1000 nM

====

# TESTED ON: Mucosa-associated lymphoid tissue lymphoma translocation protein 1 (Homo sapiens)
# RUN DESCRIPTION: MALT1 Protease Assay 2
REPORTED METRIC: IC50

Reference set, count: 6
>>> recorded_measurement("C[C@@]1(C(F)(F)F)CN(C(=O)n2nc(C(F)(F)F)cc2N)c2cnc3cc(Cl)nn3c21")
"> 1000 nM"
>>> recorded_measurement("C[C@@]1(C(F)(F)F)CN(C(=O)Nc2ccnc(C(F)(F)F)c2)c2cnc3cc(Cl)nn3c21")
"< 10 nM"
>>> recorded_measurement("C[C@@]1(C(F)(F)F)CN(C(=O)Nc2cnc(-n3nccn3)c(C(F)(F)F)c2)c2cnc3cc(F)nn3c21")
"< 10 nM"
>>> recorded_measurement("CCc1nn2c3c(cnc2c1N)N(C(=O)Nc1cnc(-n2nccn2)c(Cl)c1)C[C@@]3(C)C(F)(F)F")
"> 1000 nM"
>>> recorded_measurement("C[C@@H](O)c1cnn(-c2ncc(NC(=O)N3C[C@@](C)(C(F)(F)F)c4c3cnc3cc(Cl)nn43)cc2Cl)n1")
"< 10 nM"
>>> recorded_measurement("CCc1nn2c3c(cnc2c1N)N(C(=O)Nc1cnc(-n2nccn2)c(Cl)c1)C[C@]3(C)C(F)(F)F")
"100 to 1000 nM"

Let's switch to this compound now.
Prompt: API: value(readout=IC50, system=Mucosa-associated lymphoid tissue lymphoma translocation protein 1 (Homo sapiens)) for record `C[C@@]1(C(F)(F)F)CN(C(=O)Nc2cc(Cl)c(C(=O)O)c(O[C@H]3CCNC3)n2)c2cnc3cc(Cl)nn3c21`
Completion: > 1000 nM
